Where these numbers come from: PubChem BioAssay AID1963836

Test system: 857933-349-R-J2-PDC complex spheroid viability;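 further: spheroids exposed to compounds for seven days before readout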
procedure-summary: Anticancer human tumor 857933-349-R-J2-PDC patient-derived colon adenocarcinoma cell line growth inhibition [POLQ]
condition-label: second compound 0.0316 µM; first compound 0.001 µM; active compounds read low
property-name: viability, T/C (%)
Give just the number in %; leave the unit off.

Cn1ncnc1[C@H]1c2n[nH]c(=O)c3cc(F)cc(c23)N[C@@H]1c1ccc(F)cc1 + Cc1cccc(N(C)C(=O)C2C(O)CCN2c2nc(C)cc(C(F)(F)F)c2C#N)c1 | 115
Cn1ncnc1[C@H]1c2n[nH]c(=O)c3cc(F)cc(c23)N[C@@H]1c1ccc(F)cc1 + COC1C(OC(N)=O)C(O)C(Oc2ccc3c(O)c(NC(=O)c4ccc(O)c(CC=C(C)C)c4)c(=O)oc3c2C)OC1(C)C | 95.3
CC[C@@]1(O)C(=O)OCc2c1cc1n(c2=O)Cc2cc3c(CN(C)C)c(O)ccc3nc2-1 + Cc1cccc(N(C)C(=O)C2C(O)CCN2c2nc(C)cc(C(F)(F)F)c2C#N)c1 | 102
Cn1ncnc1[C@H]1c2n[nH]c(=O)c3cc(F)cc(c23)N[C@@H]1c1ccc(F)cc1 + Nc1ccc(C#CCN(C(=O)Cc2ncc(C(F)(F)F)cc2C(F)(F)F)c2ccc(F)cc2)nn1 | 83.9
CC[C@@]1(O)C(=O)OCc2c1cc1n(c2=O)Cc2cc3c(CN(C)C)c(O)ccc3nc2-1 + Nc1ccc(C#CCN(C(=O)Cc2ncc(C(F)(F)F)cc2C(F)(F)F)c2ccc(F)cc2)nn1 | 103

Here is the next item to consider.
Task: For CC[C@@]1(O)C(=O)OCc2c1cc1n(c2=O)Cc2cc3c(CN(C)C)c(O)ccc3nc2-1 + COC1C(OC(N)=O)C(O)C(Oc2ccc3c(O)c(NC(=O)c4ccc(O)c(CC=C(C)C)c4)c(=O)oc3c2C)OC1(C)C , write its viability, T/C.
Output: 107
